experiment: NCI Yeast Anticancer Drug Screen. Data for the sgs1 mgt1 strain (AID 161);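 also: 0% = growth of cultures given vehicle only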; conditions: S. cerevisiae sgs1 mgt1 strain, at 50.0 µM
This is part of a sample that, as a whole, favours compounds with a hit. Of some 79,000 tested, about 15% had one in any assay. The source made the active and inactive calls. Rule as the data show it: active = growth inhibition above about 70%; inactive = the rest.
Outcome codes: 1 (yes) = active, 0 (no) = inactive

# molecule, class_label
measured = [
    ("Cc1ccc2cc(CCCC(=O)O)ccc2c1", "0 (no)"),
    ("COc1cc2cccc(N=Cc3cccc(OC)c3OC(C)C)c2cc1OC", "0 (no)"),
    ("COC1(OC)C2(Cl)C(Cl)=C(Cl)C1(Cl)C1CCCCC12 (stereo not drawn)", "0 (no)"),
    ("Clc1ccc(N=C2CCCCC2)cc1", "0 (no)"),
    ("C/[N+]([O-])=N/COC1OC(COC2OCC(O)C(O)C2O)C(O)C(O)C1O (stereo not drawn)", "0 (no)"),
    ("c1ccc2c(c1)CCc1ccccc1N2", "0 (no)"),
    ("c1csc(-c2sc(-c3ccsc3)cc2Cc2ccsc2)c1", "0 (no)"),
    ("c1cc(C[S+]2CCCC2)ccc1C[S+]1CCCC1", "0 (no)"),
    ("CCOC(=O)c1sc2nc(-c3ccccc3)nn2c1CBr", "0 (no)"),
    ("CC1(c2ccccc2)SCCS1", "0 (no)"),
    ("C=CCC12CC(O)C(O)CC1(OC)OC(c1cc(OC)c(OC)c(OC)c1)C2C (stereo not drawn)", "0 (no)"),
    ("O=P(O)(CP(=O)(c1ccccc1)c1ccccc1)c1ccccc1", "0 (no)"),
    ("Clc1ccc2nsnc2c1", "0 (no)"),
    ("Cc1cccc(C2=N/C(=C\\c3ccccc3)C(=O)O2)c1", "0 (no)"),
    ("C[N+](C)(CCOc1ccccc1)Cc1ccccc1", "0 (no)"),
    ("CS(=O)(=O)OCCCSCCSCCCOS(C)(=O)=O", "0 (no)"),
    ("c1ccc2c(c1)C1C3c4ccccc4C1C1C2C31", "0 (no)"),
    ("CCCCc1ccc(Nc2nc(OC)c3ncn(C4CC(O)C(CO)O4)c3n2)cc1 (stereo not drawn)", "0 (no)"),
    ("CC1=CCCCC1(C)/C(C)=N/Nc1ccc([N+](=O)[O-])cc1[N+](=O)[O-] (stereo not drawn)", "0 (no)"),
    ("O=N[C@@H]1CCC[C@H](Cl)C1", "0 (no)"),
    ("COc1ccc2c(c1)C(=O)[C@]1(C)C3(C)OC(=O)C(c4ccccc43)[C@]21C (stereo partly drawn)", "0 (no)"),
    ("CC1(C)COC(=O)/C1=C/C#N", "0 (no)"),
    ("O=C(c1ccc(Cl)cc1)c1ccc2ccccc2c1", "0 (no)"),
    ("N#C/C(=N\\NC(=O)c1ccccc1Cl)c1ccccc1Cl", "1 (yes)"),
    ("COC(=O)c1cc(C)c(C(=O)O)c(C)c1", "0 (no)"),
    ("N=C(N)c1cccc(NC(=O)CCc2ccccc2)c1", "0 (no)"),
    ("CCc1cc2c(Nc3ccccc3)c3c(nc2s1)CCCC3", "0 (no)"),
    ("COc1cc(Cn2c(=S)ss/c2=N\\C(=S)N(C)C)cc(OC)c1OC", "0 (no)"),
    ("N#CC(C#N)=C(O)/C(=C/c1ccc(Cl)cc1Cl)NC(=O)c1ccccc1", "0 (no)"),
    ("CC1=C(C(=O)Nc2ccc(Cl)c(C(=O)OC(C)C)c2)SCCO1", "0 (no)"),
    ("C=Nc1ccc(C)cc1", "0 (no)"),
    ("OCCCNc1ncnc2[nH]ncc12", "0 (no)"),
    ("CCOC(=O)C(NC(=O)c1cccc(Cl)c1)(N1CCN(c2cc3c(cc2F)c(=O)c(C(=O)O)cn3CC)CC1)C(F)(F)F (stereo not drawn)", "0 (no)"),
    ("O=C(O)/C=C/C(=O)Nc1cc2c(cc1Br)-c1ccccc1C2O (stereo not drawn)", "0 (no)"),
    ("Nc1cccc2c(S(=O)(=O)O)cccc12", "0 (no)"),
    ("CC(C)CCCC(C)C1CCC2(C)C3=C(CCC12C)C1(C)CCC(O)C(C)(C)C1CC3=O (stereo not drawn)", "0 (no)"),
    ("CCCC(=O)c1ccc(O)cc1", "0 (no)"),
    ("COc1ccc(Nc2nc3c(N)cc(C(F)(F)F)cc3nc2-c2ccccc2)cc1", "0 (no)"),
    ("COCN(COC)c1nc(CCC(Br)(Br)Br)nc(N(COC)COC)n1", "0 (no)"),
    ("O=c1oc2ccc(Br)cc2cc1CCS", "0 (no)"),
    ("CCOC(=O)CCCC(=O)N(CC(=O)OCC)Cc1ccccc1", "0 (no)"),
    ("O=C(COC(=O)C(CC(=O)c1ccccc1)Cc1ccccc1)c1ccc(-c2ccccc2)cc1 (stereo not drawn)", "0 (no)"),
    ("N#CC(C#N)=C(N)/C(C#N)=C/c1ccc(O)c(O)c1", "0 (no)"),
    ("O=C(Cl)c1cc(-c2ccc(Cl)cc2)nc2c(-c3ccccc3)cccc12", "0 (no)"),
    ("COc1ccc2nc(C)c3c(c2c1)C(=O)N(CCC[N+]1([O-])CC[N+]([O-])(CCCN2C(=O)c4c(c5cc(OC)ccc5[n+]([O-])c4C)C2=O)CC1)C3=O (stereo not drawn)", "0 (no)"),
    ("C=CCOCC(O)CO (stereo not drawn)", "0 (no)"),
    ("CCOC(=O)NC(=O)c1cn(CCCOC(=O)CCCCCCCCCCC(=O)OCCCn2cc(C(=O)NC(=O)OCC)c(=O)[nH]c2=O)c(=O)[nH]c1=O", "0 (no)"),
    ("OCc1ccccc1CC(O)c1ccccc1 (stereo not drawn)", "0 (no)"),
]

###

assay: NCI Yeast Anticancer Drug Screen. Data for the bub3 strain (AID 167); conditions: S. cerevisiae bub3 mutant strain, at 50.0 µM, active compounds read high
About 79,000 compounds went through this panel and 15% of them were active in at least one assay; those are over-represented in the sample as a whole.

# molecule, growth inhibition [%]
data = [
    ("CCN(CC)CCNc1cc(OC)c(N)c2cccnc12", 46.6),
    ("COc1ccc(C2C3=C(CC(C)(C)CC3=O)Oc3cc4c(cc32)OCO4)cc1 (centres undefined)", 0),
    ("c1ccc(-c2cc3c4ccccc4ccn3c2)cc1", -2.95),
    ("O=c1[nH]c2ccc(Cl)cc2[nH]c1=O", -1.45),
    ("COc1ccc(N2C(=O)C(=O)C3(CCCCC3)C2=O)c2ccccc12", 1.05),
    ("O=C1CCC(N2C(=O)c3ccccc3C2=O)C(=O)O1 (centres undefined)", 8.5),
    ("C/C(=N/NC(N)=S)c1ccc[nH]1", -39),
    ("COC(=O)C1CC(=O)c2cc(OC)ccc2C1 (centres undefined)", -7.75),
    ("COC1OC(=O)c2ccccc21 (centres undefined)", -2.45),
    ("COC(=O)/C=C(\\C)CC(O)/C=C(\\C)CCC=C(C)C (centres undefined)", 60.5),
    ("CCN(CC)CCCn1c(-c2ccccc2)ccc1-c1ccccc1", 21.4),
    ("COC1=CC(=C(c2ccc(O)c(OC)c2)c2ccc(O)c(OC)c2)C=CC1=O", -22.4),
    ("O=c1[nH]nc(-c2ccc3c(c2)Cc2ccccc2-3)c2ccccc12", 10.3),
    ("O=C(O)c1cccc2c1C1CCC2c2cccc(C(=O)O)c21", -2.6),
    ("N#CCCS(=O)(=O)O", 15.9),
    ("COc1ccc(OC)c(NC(=O)Sc2c(Cl)c(Cl)nc(Cl)c2Cl)c1", -0.05),
    ("NC(=O)N/N=C/c1cccc([N+](=O)[O-])c1", 25.6),
    ("C/C(CC(=O)Nc1cccc([N+](=O)[O-])c1)=N\\NC(=O)C[n+]1ccccc1", 0.5),
    ("NCC(=O)c1cc2ccccc2[n+]([O-])c1", -8.5),
    ("CC(=O)NC(C)C#N (centres undefined)", -8.7),
    ("Cc1ccc(S(=O)(=O)OC2CCCC2OS(=O)(=O)c2ccc(C)cc2)cc1 (centres undefined)", -2.35),
    ("COC(=O)C(Cc1c[nH]c2ccccc12)NP(=O)(O)OCC1OC(n2cc(F)c(=O)[nH]c2=O)CC1O (centres undefined)", -24.7),
    ("O=C1C2C3C=C4c5ccccc5N(c5ccccc5)C4([C@@H]2C(=O)N1c1ccc(F)cc1)[C@H]1C(=O)N(c2ccc(F)cc2)C(=O)[C@@H]31 (some centres undefined)", 21.4),
    ("CCOC1OC(C2COC(=O)O2)C(O)C1O (centres undefined)", 7.4),
]
